System: diazepam effect in the pentetrazole test
protocol: Antagonism of diazepam in the pentetrazole test
Type: in vivo, mice
particulars: Mus musculus, po, 0.25 h; mice; diazepam 5 mg/kg i.p. 1 hour before pentetrazole 120 mg/kg i.p.; test compound p.o. 15 minutes before pentetrazole
# t = ED50 below 1 mg/kg (exclusive); f = ED50 at/above 1 mg/kg

Look over these answered cases.
molecule-smiles	label-value
CN1Cc2c(C(=O)OC(C)(C)C)ncn2-c2cccc(Cl)c2C1=O	t
CN1Cc2c(C(=O)OC(C)(C)C)ncn2-c2cccc(Br)c2C1=O	t
CN1Cc2c(C(=O)OC(C)(C)C)ncn2-c2ccccc2C1=S	f
CN1Cc2c(C(=O)OC(C)(C)C)ncn2-c2cccc(C#N)c2C1=O	f

Prompt line: I'd appreciate it if you could check whether "CN1Cc2c(C(=O)OC(C)(C)C)ncn2-c2ccccc2C1=O" has ED50 smaller than 1 mg/kg.
Response line: f

Prompt line: I'd appreciate it if you could check whether "CN1Cc2c(C(=O)OC(C)(C)C)ncn2-c2ccc(F)cc2C1=O" has ED50 smaller than 1 mg/kg.
Response line: f

Origin of values: patent US4352817A
